System: SNB-19 CNS
assay.name: NCI-60 one-dose screen, 48 h (100 = growth as untreated, 0 = no growth, -100 = all killed)
condition.set: 10 µM unless noted
Compounds without any hit were thinned out: in the full panel of roughly 83,000, 20% have a hit.
// values below are reported growth
metric.name: growth (%)

[[record]]
compound = "O=C1CCC(=O)CC1"
measured_number = 93.9

[[record]]
compound = "CC(C)(C)c1cnc(CSc2cnc(NC(=O)C3CCNCC3)s2)o1"
measured_number = 12.4

[[record]]
compound = "CCN1CCN(c2nc(C)cc(N(CCCNc3ccnc4cc(Cl)ccc34)Cc3ccc4c(c3)OCO4)n2)CC1"
measured_number = 24.8

[[record]]
compound = "COc1cnc2c(c1)C(=O)c1c-2n(CCCn2ccnc2)c(=O)c2cc(Cl)ccc12"
measured_number = 20.2

[[record]]
compound = "CO[C@H]1C[C@@H]2CC[C@@H](C)[C@@](O)(O2)C(=O)C(=O)N2CCCC[C@H]2C(=O)O[C@H]([C@H](C)C[C@@H]2CC[C@@H](O)[C@H](OC)C2)CC(=O)[C@H](C)/C=C(\\C)[C@@H](O)[C@@H](OC)C(=O)[C@H](C)C[C@H](C)\\C=C/C=C/C=C/1C"
measured_number = 39.4

[[record]]
compound = "COc1ccc2nc3cc(Cl)ccc3c(Nc3ccc(N(C)C)cc3)c2c1"
measured_number = 101

[[record]]
compound = "N#Cc1c(-c2ccc(C(F)(F)F)cc2)c(F)c(NCCC2CCC(O)C2)n2c1nc1ccccc12 (stereo not drawn)"
measured_number = 78.3

[[record]]
compound = "C/C(=N\\NC(=O)Cn1c(-c2ccc(S(C)(=O)=O)cc2)nc2ccccc21)c1ccc(Cl)cc1"
measured_number = 93.4


* * *

Listed molecules paired with reported growth
Test system: HCC-2998 colon
assay.name: NCI-60 one-dose screen, 48 h (100 = growth as untreated, 0 = no growth, -100 = all killed)
condition.set: 10 µM
About 83,000 compounds went through this panel and 20% of them were active in at least one assay; those are over-represented in the sample as a whole. Active and inactive are the calls of the source. How the source made its calls: active means growth percent below 10; inactive means the rest.
metric.name: growth

[[record]]
molecule = "Cc1sc2c(c1C)c(=O)nc1c(-c3nc(-c4ccccc4)cs3)n[nH]n12"
result = "101% (inactive)"

[[record]]
molecule = "Cc1cc2c(-c3nc4ccccn4c3NC34CC5CC(CC(C5)C3)C4)c(O)c(O)cc2c(O)c1-c1c(C)cc2c(-c3nc4ccccn4c3NC34CC5CC(CC(C5)C3)C4)c(O)c(O)cc2c1O"
result = "31% (inactive)"

[[record]]
molecule = "CC1(O)CC(c2nc(-c3ccc4ccc(-c5ccccc5)nc4c3)c3c(N)nccn23)C1 (configuration not stated)"
result = "48.7% (inactive)"

[[record]]
molecule = "O=C(NO)c1ccc(Cn2c(=O)n(-c3ccccc3F)c(=O)c3ccccc32)cc1"
result = "-32.9% (active)"

[[record]]
molecule = "O=C1OCC2=C1C(c1cccc(F)c1)c1cc3c(cc1N2CCO)OCCO3 (configuration not stated)"
result = "8.09% (active)"

[[record]]
molecule = "CCOC(=O)Sc1ncnc2nc[nH]c12"
result = "26.4% (inactive)"

[[record]]
molecule = "COC(=O)[C@]12CC[C@@H](C)[C@H](C)[C@@H]1C1=CC[C@@H]3[C@@]4(C)C(C#N)=CC(C)=C4CC[C@@]3(C)[C@]1(C)CC2"
result = "80% (inactive)"

[[record]]
molecule = "Cc1cc(Nc2cc(N3CCN(C)CC3)nc(/C=C/c3ccccc3)n2)n[nH]1"
result = "-61.5% (active)"

[[record]]
molecule = "O=c1[nH]c(N2CCOCC2)nc2scc(-c3ccccc3)c12"
result = "106% (inactive)"

[[record]]
molecule = "CC1(O)CCC(Nc2cc(-c3ccc(C(F)(F)F)cc3)c(C#N)c3nc4ccccc4n23)CC1 (configuration not stated)"
result = "86.5% (inactive)"

[[record]]
molecule = "CNC(=O)c1cc(Oc2cccc3nc(Nc4ccc(Oc5ccccc5)cc4)ccc23)ccn1"
result = "94% (inactive)"

[[record]]
molecule = "COc1ccc(-c2nocc2-c2cc(OC)c(OC)c(OC)c2)cc1"
result = "13.4% (inactive)"

[[record]]
molecule = "Cc1cc(N2CCOCC2)nc(N(CCNc2ccnc3cc(Cl)ccc23)Cc2cccs2)n1"
result = "-12.7% (active)"

[[record]]
molecule = "NS(=O)(=O)c1ccc(CCN2C(=O)/C(=C\\c3ccc(Cl)cc3)C=C2c2ccc3ccccc3c2)cc1"
result = "94.8% (inactive)"

[[record]]
molecule = "Cc1ccc(NC(=O)Nc2ccc(Nc3ncnc4sc5c(c34)CCOC5)cc2)cc1Cl"
result = "112% (inactive)"

[[record]]
molecule = "CC1(C=O)NC(=O)NC1=O (configuration not stated)"
result = "94.7% (inactive)"

[[record]]
molecule = "C1=C\\COCc2cc(ccc2OCCN2CCCC2)Nc2nccc(n2)-c2cccc(c2)COC/1"
result = "-16.4% (active)"

[[record]]
molecule = "CCN1CCN(Cc2ccc(-c3cc4c(N[C@H](C)c5ccccc5)ncnc4[nH]3)cc2)CC1"
result = "14.3% (inactive)"

[[record]]
molecule = "COc1ccc2c(CCCC(c3ccccc3)c3ccccc3)c3[n+](cc2c1OC)CCc1cc2c(cc1-3)OCO2"
result = "-81.9% (active)"

[[record]]
molecule = "NC1=Nc2cc(OCCCN3Cc4ccccc4C3)c(OCC3CC3)cc2C12CCCC2"
result = "1.52% (active)"

[[record]]
molecule = "Cc1ccc(NC(=O)c2ccc(CN3CC[C@H](N(C)C)C3)c(C(F)(F)F)c2)cc1Nc1nccc(-c2cncnc2)n1"
result = "-22.7% (active)"

[[record]]
molecule = "CC1=CC2c3oc(-c4ccccc4)c(C(=O)c4ccccc4)c3CNC2C=C1 (configuration not stated)"
result = "102% (inactive)"

[[record]]
molecule = "NC(=O)Nc1cc(-c2cccc(F)c2)sc1C(=O)N[C@H]1CCCNC1"
result = "-34.6% (active)"

[[record]]
molecule = "Cc1cc2c(-c3nc4ccccn4c3NC3CCCCC3)c(O)c(O)cc2c(O)c1-c1c(C)cc2c(-c3nc4ccccn4c3NC3CCCCC3)c(O)c(O)cc2c1O"
result = "46.2% (inactive)"

[[record]]
molecule = "O=C(O)c1ccc(Nc2ncc3c(n2)-c2ccc(Cl)cc2C(c2c(F)cccc2F)=NC3)cc1"
result = "78.5% (inactive)"

[[record]]
molecule = "C[C@@H](C[C@H](CCO)c1cc(C(F)(F)F)cc(C(F)(F)F)c1)c1ccc2ccccc2c1"
result = "86.1% (inactive)"

[[record]]
molecule = "CCN(CC)c1cc2oc3cc(N)cc(=N)c-3nc2cc1C"
result = "100% (inactive)"

[[record]]
molecule = "Cn1ncc(Cl)c1-c1cc(C(=O)N[C@H](CN)Cc2ccc(F)c(F)c2)oc1Cl"
result = "-89.9% (active)"

[[record]]
molecule = "Ic1ccccc1-c1ccccc1"
result = "114% (inactive)"

[[record]]
molecule = "CCCCCCCC(=O)SCC/C=C/[C@@H]1CC(=O)NCc2cccc(n2)C2=N[C@@](C)(CS2)C(=O)N[C@@H](C(C)C)C(=O)N1"
result = "12.6% (inactive)"

[[record]]
molecule = "CNC(=O)c1cc(Oc2ccc(NC(=O)Nc3cc(C(C)(C)C)nn3-c3ccc4ncccc4c3)c(F)c2)ccn1"
result = "-31.5% (active)"

[[record]]
molecule = "Cc1ccc(NC(=O)NC(=O)CSc2nc3ccccc3nc2C)cc1"
result = "72.1% (inactive)"

[[record]]
molecule = "Cc1ccc(-[n+]2c3cc(N)c(C)cc3nc3cc(C)c(Nc4ccccc4)cc32)cc1"
result = "-98% (active)"

[[record]]
molecule = "CC1CCC(n2cnc3c(Cl)ncnc32)O1 (configuration not stated)"
result = "103% (inactive)"

[[record]]
molecule = "CNC(=O)c1cnc(C)nc1-c1cc(C(C)(C)C)c(O)c(C(C)(C)C)c1"
result = "127% (inactive)"

[[record]]
molecule = "CC12O[C@H](C[C@@H](OC(=O)CCC(=O)O)[C@H]1O)n1c3ccccc3c3c4c(c5c6ccccc6n2c5c31)C(=O)NC4=O"
result = "41.3% (inactive)"

[[record]]
molecule = "CCOC(=O)C1=C(C)N=C2Sc3cc(OC(F)(F)F)ccc3N2[C@H]1c1ccccn1"
result = "69.4% (inactive)"


Hey, just so you know, these numbers are from PubChem BioAssay (NCI).
